# log10(Kd) per record follows
target: streptavidin (Streptomyces avidinii, UniProt P22629); experiment: Binding constants by surface plasmon resonance, BIAcore NTA chip, optimized measuring method; conditions: peptide N-terminal of FABP, C-terminal Gly2-His8, 1,100 RU immobilized; read-out: Kd
Sequence (P22629 25-183, species assumed): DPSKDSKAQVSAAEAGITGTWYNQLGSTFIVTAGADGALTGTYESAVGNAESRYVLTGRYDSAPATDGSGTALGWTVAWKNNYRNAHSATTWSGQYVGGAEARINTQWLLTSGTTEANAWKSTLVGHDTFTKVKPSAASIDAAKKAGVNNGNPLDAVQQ
value.type: log10(Kd) (log10 of the value in nM)

>>> value("DVEAWLGARVPLVET")
0.61
>>> value("DVEAWLGAR")
1.23
>>> value("DVDAWLDER")
2.97
>>> value("DVEAWLGER")
1.23
>>> value("DVEAWLDERVPLVET [motif 3, D V E A W L D E R V P L V E T]")
0.56
>>> value("DVEAWLDAR")
2.20
>>> value("DVEAWLDER")
2.38
>>> value("DVGAWLDER")
2.76
>>> value("DVEAWLGERVPLVET")
0.62

====

# pKd per record follows
target: streptavidin (Streptomyces avidinii, UniProt P22629); assay: Dissociation constant measurement, BiacoreX, NTA sensor chip (first measurements); format: binding; conditions: FABP with N-terminal 15-aa peptide, C-terminal His6 on NTA chip
pKd: −log10 of the molar value.
value.type: pKd

>>> value("DVEAWLDERVPLVET [motif 3, D V E A W L D E R V P L V E T]")
7.08
>>> value("DLYDIDRNWVGHPQG [motif 1, D L Y D I D R N W V G H P Q G, reference compound]")
5.10
>>> value("DNYDADLAWDTHPQD [motif 2, D N Y D A D L A W D T H P Q D, reference compound]")
4.15
>>> value("DVEAWIADPAVHFTT [motif 4, D V E A W I A D P A V H F T T]")
6.70
